procedure_text: yeast display, Sf9 membrane polyspecificity reagent, FACS + sequencing; frameworks hold sequencing errors

primary_sequence	polyreactivity (PSR sort gate)
QVQLVESGGGLVQAGGSLRLICAASGRIYWTYAMGWYRQAPGKERDLVAAISSGGSTNYADSVKGRFTISRDNAKNTVYLQMNSLKPEDTAVYYCAADRWYREYDYWGQGTQVTVSS	low polyreactivity
QVQLVESGGGLVQAGGSLRLSCAASGRIFNTYAMGWFRQAPGKERELVAAITRSAGRTYYADSVKGRFTISRDTAKNTVYLQMNSLKPEDTAVYYCAAQYNYGQRSGPYGYWGQGTQVTVSS	low polyreactivity
QVQLVESGGGLVQAGGSLRLSCAASGSTFYRYAMGWYRQAPGKERELVATISKRGGSTYYADSVKGRFTISRDNAKYTVYLQMNSLKPEDTAVYYCNVRLEYRYYRGDYWGQGTQVTVSS	high polyreactivity
QVQLVESGGGLVQAGGSLRLSCAASGRTFINYAKGWYRQAPGKERELVAAITTGGGGTYYADSVKGRFTISRDNAKNTVYLQMNSLKPEDTAVYYCAAEGTGYWGIVGYYYWGQGTQVTVSS	low polyreactivity
QVQLVESGGGLVQAGGSLRLSCAASGSTFGQYVMAWYRQAPGKERELVAAISSGDSTNYADSVKGRFTISRDNAKNTVYLQMNSLKPEDTAVYYCAAARRPTYWPVYPYFGYEYWGQGTQVTVSS	low polyreactivity
QVQLVESGGGLVQAGGSLRLSCAASGSIFALYAMGWSRQEPGKEREFVAAISYRGGRTYYADSVKGRFTISRDNAKNTVYLQMNSLKPEDTAVYYCDTDFPGKFDYWGQGTQVTVSS	low polyreactivity
QVQLVESGGGLVQAGGSLRLSCAASGRTFTAYAMGWYRQAPGKERELVASISSGVTYADSVKGRFTISRDNAKNTVYLQMTSLKPEDTAVYYCAARLWYVQGYVPYVHHRFDYWGQGTQVTVSS	low polyreactivity
QVQLVESGGGLVQAGGSLRLSCAASGGTFRPNAMGWYRQAPGKERELVAAITRSGGSTYYADSVKGRFTISRDNAKNTVYLQMNSLKPVDTAVYYCARDLREWGQGTQVTVSS	low polyreactivity
QVQLVESGGGLVQAGGSLRLSCAASGSTLYYYAMGWYRQAPGKERELVAAITYSGGNTYYADSVKGRFTISRDNAKNTVYFQMNSLKPEDTAVYYCAADDWSSDYIRYEYWGQGTQVTVSS	low polyreactivity
QVQLVESGGGLVQAGGSLRLSCASSGLTFELYAMGWYRQAPGKERELVAAITWSGGRTYYADSVKGRFTISRDNAKNTVYLQMNSLKPEDTAVYYCAADVYPGYVGSQEYDYWGQGTQVTVSS	low polyreactivity
QVQLVESGGGLVQAGVSLRLSCAASGSIFGFNAMGWYRQAPGKEWELVAAINNGGSTNYADSVKGRFTISRDNAKNTVYLQMNSLKPEDTAVYYFAAERWFYRSKFDYWGQGTQVTVSS	high polyreactivity

###

procedure_text: yeast display, Sf9 membrane polyspecificity reagent, FACS + sequencing; frameworks hold sequencing errors

primary_sequence	polyreactivity (PSR sort gate)
QVQLVESGGGLVQAGGSLLLSSAASGIIFNQYAMGWYRQAPGKERELVATISSGGARTYYADSVKWRFTISRDNAKNTVYLQMNSRKPEDTAVYFCNRRVPYSFYSRGYYYWGQGTQVTVSS	high polyreactivity
QVQLVESGGGLVQAGGSLRLSCAASGLSFSGNVMGWYRQAPGKERELVAAIDRSGGSTYYADSVKGRFTISRDNAQKTVYLQMNSLKPEDTAVYYCAVSSYPNHSRSWDDYWGQGTQVTVSS	low polyreactivity
QVQLVESGGGLVQAGGSLRLSCAASGRTFSPYAMGWYRQAPGKERELVAAITNGGSTHYADSVKGRFTISRDNAKNTVYLQMNSLKPEDTAVYYPYDYWGQGTQVTVSS	low polyreactivity
QDQLVESGGGLVQAGGSLRLSCDASGSIFRYYTMGWYRQAHGQERELVARISYSGGRTYYAVSVKGRFTISRDNAKNTVYLQMNSLKPEDTAVYYCNTVTRWVGKLEYWGHGTQVTVSS	high polyreactivity
QVQLVESGGGLVQAGGSLRLSCAASGFTFSSYAMGWYRQAPGKERELVAAISTRGGSTYYADSVKGRFTISRDNAKNTVYLQMNSLKPEDTAVYYCATGGRGGRRYEYWGQGTQVTVSS	low polyreactivity

###

procedure_text: yeast display, Sf9 membrane polyspecificity reagent, FACS + sequencing; frameworks hold sequencing errors
quantity_kind: polyreactivity (PSR sort gate)

primary_sequence	result
QGQLVESGGGLVQAGGSLRISSAASGGNFPGNTMGWYRLAPGKESELVAAISNGVSTNYADSVKGGFTISRDNAKNTVYLQMNSQKPEDTAVYYCAAEWSWWDGEDYHFEYDYWGQGTQVTVSS	low polyreactivity
QVQLVESGGGLVQSGGSLRLSCVASGRTFRWYPMGWYRQEPGKERELVATITLNGGSTYYADSVKGRFTISRDNEKNTVYLQMNSLKPEDTAVYYCNRGTNVVRRGVYSFGYDYWGHGTQVTVSS	low polyreactivity
QVQLEESGGGLVQAGGSLRLSCAASGYNFVYYAMGWYRQAPGKERELDAAITGRGGSTYYADSVKGRFTISRDNAKNTVYLQMNSLKPEDTAVYYCAKKRIGPVKQFGRDYNYWGQGTQVTVSS	high polyreactivity
QVQLVESGGGLVQAGGSLRLSCAASGFIISPYARGWYRQAPGKETELVAAISWSGVSTYYADSVKGRFTMSRDNAKNTVYLQMNSLNPEDTAVYYCAADPYCVKYRYGDDYWGQGTQVTVSS	high polyreactivity
QVQLVESGGGLVQAGGSLRLSCAASGSIIPRNVMGWYRQAPGKERDLVAAISSSGGSTSYADSVKGRFTISRDNAKNTVYLQMNSLKPEDTAVYYCNAPWQRYSAPWGQGYNYWGQGTQVTVSS	high polyreactivity
QVQLVESGGGLVQAGGSLRLSCAASGSTFYPNAMGWYRQAPGKERELVAAISRGTRTKYADSVKGRFTISRDNAKNTVYLQMNSLKPEDTAVYYCAADTGTGLDWGQGTQVNVSS	high polyreactivity
QVQLVESGGGLVQAGGSLRLSCAASGFTIDSNVMGWYRQAPGKDRELVAAITGDDTTYYADSVKGRFTISRDNAKNTVYLQMNSLKPEDTAVYYCAADETESLEYTAYDMYYWGQGTQVTVSS	low polyreactivity
QVQLVESGGGLVQAGGSLRLSCAASGSTFSDYAMGWYRQAPGKERELVAGITGGGGTYYADSVKGRFTISRDNAKNTVYLQMNSLKPEDTAVYYCAAGRRHGFGYWGQGTQVTVSS	low polyreactivity
QVQLVESGGGLVQAGGSLRLSCAASGSIFPYYAMGWYRQAPGKERELVARITWRSTSTYADSVKGRFTISRDNAKNTVYLQMNSLKPEDTAVYYCAVRLLSTYIIEYDHWGQGTQVTVSS	low polyreactivity
QVQLVESGGGLVQAGGSLRLSCAASGFIITTYAMGWYRQAPGTEREVVAGISSSGGSTRYADSVKGRFTISRDNAKNTVYLQMNSLKPEDTAVYYCNVLRYRGYDYWGQGTQVTVSS	high polyreactivity
QVQLVESGGGLVQAGGSLLLSCAASGLIFYPYAMGWYRQAPGKEREFVAAITWSGGSTRYADSVKGRFTISRDNAKNTVYLQMNSLKPEDTAVYYCAARYIWWYDYTYTGLDYWGQGTQVTVSS	high polyreactivity
QDQLVDSGGGLVQAGGSLRLSCAASGNIFTFNAMGWYRQAPGKERELVAAISRGGRTNYADSVKGRFTISRDNAKNTVYLQMNSLKPEDTAVYYCAAEFPQRASGGRYKTEYDYWRQGTQVTVSS	low polyreactivity
QVQIVESGGGLVQAGGILRLSCAASGRIFWRNAMGWYRQAPGKEREFVAAITYTAGRTYYADSVKGRFTISRDNSKITVYLQMNSLKPEDTAVYYCAAGSRRPGGTGYDHWVQGTQVTVSS	low polyreactivity
QVQLVESGGGLVQAGGSLRLICAASGITFAWYAMGWYRQAPGKERELVAAIDDRGGSTYYADSVKWRFTISRDNAKNTVYLQMYSLKPEDTAVYYCNADTPSYEPYRLDYLGQGTQVTVSS	low polyreactivity
QVQLVESGGGLVQAGGSLRLSCAASGSIFAYYAMGWSRQAPGKERELVASIDWSGDLYVRDSVKGRFTISRDNAKNTVYLQMNSLKPEDTAVYYCAADVGFGVVFYDYWGQGTQVTVSS	low polyreactivity
QVQLVESGGGLVQAGGSLRLSCAASGSIFEYYAMGWYREAPGKERELVAAITSSGASTYYADSVKGHFTISRDNAKNSVYLQMNSLKPEDTAVYYCAKEVIRYSQYIFDYWGQGTQVTVSS	low polyreactivity
QVQLVESGGGLVQAGGSLRLSCAASGRTFYFNAMGWYRPAPGKERELVAAITSGVRTKYADSVKGRFTISRDNAKNTVYLQMNSLKPEDTAVYYCAAGGYPSRYAPWMEYWGQGTQVTVSS	high polyreactivity
QVQLVESGGGLVQAGGSLRLSCAASGLIFTTNAMGSYRQAPGKEREFVAAISPSGGSTYYADSVKGRFTISRDNAKNTVYLQMNRLKPEDTAVYYCAARYSPVWHKYYYWGQGTQVTVSS	high polyreactivity
QVQLVESGGGLVQAGGSLSLSCAASGSIFWSYAMGWYRQAPGKERELVAAITTDGGTNYADSVKGRFTISRDNAKNTVYLQMNSLKPVDTAVYYCAADTDPKPRIDYTLRMDYWGHGTQVTVSS	low polyreactivity
QVQLVESGGGLVQAGGSLRLICAASGRTYDKYVMGWYRQAPGKERELVSAISFRGVRTYYADSVKGRFTISRDNAKNTFYLQKNSLKPEDTGVYYCAARFTFSAIIGPYGYWGQGTQVTVSS	high polyreactivity
QVQLVESRGGLVQAGGSLRLSSAASGFTFHGNAMRWYRQAPGKERQLVAGISSSGASTYYADSVKGRFTISRDNAKNTVYLQMNILKPEDTAVYYCAVRYYGRYLRYNYCGQGTQVTVSS	high polyreactivity
